Data credit: ChEMBL document CHEMBL5550097

Items are presented alongside their recorded concentration at 25 h.
Test: Drug concentration in mouse blood at 1 mg/kg, sc measured after 25 hrs by LC-MS/MS analysis
Assay type: ADME, organism-based
Conditions: read-out: Ct
experimental_readout: concentration at 25 h (nM)

- smiles_data: "Cn1ncc(Cl)c1-c1cc(C(=O)N[C@H](CN)Cc2cccc(F)c2)sc1Cl"
  op: "<"
  reported_result: 0.1
- smiles_data: "CC(=O)Nc1cccc(-n2c(=O)n(C3CC3)c(=O)c3c(Nc4ccc(I)cc4F)n(C)c(=O)c(C)c32)c1"
  op: "="
  reported_result: 12
- smiles_data: "Cc1c(=O)n(C)c(Nc2ccc(I)cc2F)c2c(=O)n(C3CC3)c(=O)n(-c3cccc(NCC(=O)C(C)(C)c4ccc(C(C)(C)C(=O)CNC[C@H](Cc5cccc(F)c5)NC(=O)c5cc(-c6c(Cl)cnn6C)c(Cl)s5)o4)c3)c12"
  op: "="
  reported_result: 5.2
- smiles_data: "Cc1c(=O)n(C)c(Nc2ccc(I)cc2F)c2c(=O)n(C3CC3)c(=O)n(-c3cccc(NC(=O)CCCCCNC[C@H](Cc4cccc(F)c4)NC(=O)c4cc(-c5c(Cl)cnn5C)c(Cl)s4)c3)c12"
  op: "="
  reported_result: 11
